All figures here come from patent US5298494A.

Tested on: T cell proliferation in mouse spleen cell mixed lymphocyte cultures
Test: Mixed Lymphocyte Reaction (MLR) assay
Assay type: cell-based, mouse (Balb/c responder, C57B1/6 stimulator)
Settings: Mus musculus, Lymphocyte; 3 um; read-out: % Change From Control, MLR
Quantity kind: inhibition at 3 µM (%)

> print(dat)
                                   compound                             tested.target       quantity.kind  units.of.measure  endpoint.value
1  CC1(C)OC2OC(C(O)COCCCc3ccccc3)C(O)C2O1 (stereo not drawn)  T cell proliferation in mouse spleen cell mixed lymphocyte cultures  inhibition at 3 µM                 %              19
2  CCCCC/C=C\COC[C@H]1O[C@@]2(OC)COC(C)(C)O[C@H]2[C@@H]1OC/C=C\CCCCC  T cell proliferation in mouse spleen cell mixed lymphocyte cultures  inhibition at 3 µM                 %              34
3  CCCCCCCOC[C@H]1O[C@@]2(OC)COC(C)(C)O[C@H]2[C@@H]1O  T cell proliferation in mouse spleen cell mixed lymphocyte cultures  inhibition at 3 µM                 %               5
4  CCCCC/C=C\COC[C@H]1O[C@](COC/C=C\CCCCC)(OC)[C@@H](O)[C@@H]1O  T cell proliferation in mouse spleen cell mixed lymphocyte cultures  inhibition at 3 µM                 %             -34
5  CCCCCCCCCCCCCCCOCC(O)C1OC2OC(C)(C)OC2C1O (stereo not drawn)  T cell proliferation in mouse spleen cell mixed lymphocyte cultures  inhibition at 3 µM                 %              13
6  CCCCCCCOC[C@H]1O[C@](COCC)(OC)[C@@H](OCC)[C@@H]1O  T cell proliferation in mouse spleen cell mixed lymphocyte cultures  inhibition at 3 µM                 %              18
7  CCCCC/C=C/COC[C@H]1O[C@@]2(OC)COC(C)(C)O[C@H]2[C@@H]1OC/C=C/CCCCC  T cell proliferation in mouse spleen cell mixed lymphocyte cultures  inhibition at 3 µM                 %              -8
8  CCCCCCCO[C@@H]1[C@@H](CO)O[C@@]2(OC)COC(C)(C)O[C@@H]12  T cell proliferation in mouse spleen cell mixed lymphocyte cultures  inhibition at 3 µM                 %             -34
9  CN1CCCC1CCNC[C@H]1OC(C)(C)O[C@@H]2[C@H]3OC(C)(C)O[C@H]3O[C@@H]21 (stereo partly drawn)  T cell proliferation in mouse spleen cell mixed lymphocyte cultures  inhibition at 3 µM                 %              15
